# Test name: Apparent permeability coefficient (Papp) for apical to basolateral flux was determined in MadinDarby Canine Kidney cells
# Assay type: ADME, Canis lupus familiaris
# Test conditions: dog, MDCK
Assay readout: Papp A→B
Give me the value, and tack the unit on after it.

CCCC[C@H](NC(=O)OC(C(C)C)C(C)C)C(=O)C(=O)NCc1ccno1 ... 41 ×10⁻⁶ cm/s
CCCC[C@H](NC(=O)OC(C(C)C)C(C)C)C(=O)C(=O)NCc1ccccn1 ... 51 ×10⁻⁶ cm/s
CCCC[C@H](NC(=O)OC(C(C)C)C(C)C)C(=O)C(=O)N[C@H]1CCCNC1=O ... 31 ×10⁻⁶ cm/s
CCCC[C@H](NC(=O)OC(C(C)C)C(C)C)C(=O)C(=O)NCc1cncs1 ... 48 ×10⁻⁶ cm/s

For every listed record, write down its Papp A→B.
1. CCCC[C@H](NC(=O)OC(C(C)C)C(C)C)C(=O)C(=O)N[C@H](C)c1ccccc1
2. CCCC[C@H](NC(=O)OC(C(C)C)C(C)C)C(=O)C(=O)NCc1nnco1

RESULT:
["5.7 ×10⁻⁶ cm/s", "51 ×10⁻⁶ cm/s"]
